From: the supplement of paper PMC7877785

- Test: self-splicing fitness, log relative to wild type (ln ratio); higher = more splicing; Tetrahymena group I intron in knt gene, E. coli kanamycin selection, DiMSum; sequences stand for … in CUCUCU…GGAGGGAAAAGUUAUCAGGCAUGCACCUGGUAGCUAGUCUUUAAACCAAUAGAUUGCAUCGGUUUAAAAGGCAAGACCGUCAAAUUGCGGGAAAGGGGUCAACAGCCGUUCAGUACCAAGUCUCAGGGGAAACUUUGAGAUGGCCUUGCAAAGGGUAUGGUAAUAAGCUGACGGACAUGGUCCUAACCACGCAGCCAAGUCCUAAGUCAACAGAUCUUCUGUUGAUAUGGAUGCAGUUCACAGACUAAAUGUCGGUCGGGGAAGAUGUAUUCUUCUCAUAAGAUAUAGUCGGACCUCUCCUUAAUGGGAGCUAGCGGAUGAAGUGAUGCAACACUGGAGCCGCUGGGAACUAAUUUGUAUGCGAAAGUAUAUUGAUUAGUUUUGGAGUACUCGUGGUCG;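 also: selection with 25 µg/mL kanamycin versus none on LB agar overnight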
- Condition parameters: 37 °C
Observation type: self-splicing fitness (ln)
Field format: numeric only.

# count of solved cases: 3
{"columns": ["Biopolymer sequence", "self-splicing fitness (ln)"],
 "data": [
  ["GUUUAGCAAUAUUACGGACA", -1.44],
  ["AAGUAGCAAUAUUACGAGCC", -1.34],
  ["UCUAAGCAAUAUUACGUAAG", -0.333]
]}

Notebook: GCAGAGCAAUAUUACGGCAU , self-splicing fitness (ln) read as -0.473

###

- Test: self-splicing fitness, log relative to wild type (ln ratio); higher = more splicing; Tetrahymena group I intron in knt gene, E. coli kanamycin selection, DiMSum; sequences stand for … in CUCUCU…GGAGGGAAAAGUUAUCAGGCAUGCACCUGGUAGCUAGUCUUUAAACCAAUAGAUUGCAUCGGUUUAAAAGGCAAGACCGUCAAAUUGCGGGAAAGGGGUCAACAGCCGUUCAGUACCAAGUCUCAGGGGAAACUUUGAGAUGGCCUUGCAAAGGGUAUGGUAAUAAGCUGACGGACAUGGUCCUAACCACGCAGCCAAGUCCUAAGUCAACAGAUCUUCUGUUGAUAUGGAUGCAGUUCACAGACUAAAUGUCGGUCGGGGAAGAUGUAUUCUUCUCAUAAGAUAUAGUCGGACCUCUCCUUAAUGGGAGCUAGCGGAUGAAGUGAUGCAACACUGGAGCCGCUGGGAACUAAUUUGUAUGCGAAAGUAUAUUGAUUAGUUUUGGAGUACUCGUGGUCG
- Condition parameters: 37 °C
Observation type: self-splicing fitness (ln)
Field format: numeric only.

{"columns": ["Biopolymer sequence", "Value observed"],
 "data": [
  ["CUAAAGCAAUAUUACGUUGC", -2.45],
  ["UCGAAGCAAUAUUACGUCAC", -2.69],
  ["CUAGAGCAAUAUUACGUCUG", 0.417],
  ["UUUGAGCAAUAUUACGUUGA", -1.92],
  ["UAACAGCAAUAUUACGAACA", 0.297]
]}

Notebook: ACCCAGCAAUAUUACGCCAG , self-splicing fitness (ln) read as -2.55

Notebook: AAGCAGCAAUAUUACGAGGU , self-splicing fitness (ln) read as -2.65

###

self-splicing fitness (ln) values by entry
- Test: self-splicing fitness, log relative to wild type (ln ratio); higher = more splicing; Tetrahymena group I intron in knt gene, E. coli kanamycin selection, DiMSum; sequences stand for … in CUCUCU…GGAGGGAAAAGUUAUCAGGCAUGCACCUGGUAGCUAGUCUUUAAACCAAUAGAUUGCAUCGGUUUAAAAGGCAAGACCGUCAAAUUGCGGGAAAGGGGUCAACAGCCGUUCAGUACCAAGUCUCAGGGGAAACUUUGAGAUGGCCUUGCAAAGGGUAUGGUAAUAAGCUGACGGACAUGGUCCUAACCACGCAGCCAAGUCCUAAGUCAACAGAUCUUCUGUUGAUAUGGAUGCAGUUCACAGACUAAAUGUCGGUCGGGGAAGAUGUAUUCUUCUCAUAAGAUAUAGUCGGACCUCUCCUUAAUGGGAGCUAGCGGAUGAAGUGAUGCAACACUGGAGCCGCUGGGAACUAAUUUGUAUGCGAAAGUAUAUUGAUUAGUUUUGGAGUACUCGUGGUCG
- Condition parameters: 30 °C
Field format: numeric only.

# count of solved cases: 5
{"columns": ["Biopolymer sequence", "Value observed"],
 "data": [
  ["GCACAGCAAUAUUACGAGGA", -2.11],
  ["GAAUAGCAAUAUUACGCGUA", -2.17],
  ["AGCGAGCAAUAUUACGUCGG", -3.45],
  ["UGCCAGCAAUAUUACGAAAU", -2.86],
  ["UUUAAGCAAUAUUACGUAUA", -1.95]
]}

Notebook: GUUUAGCAAUAUUACGUAUG , self-splicing fitness (ln) read as -2.29

Notebook: AGCAAGCAAUAUUACGGAAC , self-splicing fitness (ln) read as -3.49

Notebook: AAAUAGCAAUAUUACGGCCA , self-splicing fitness (ln) read as -0.522

Notebook: ACACAGCAAUAUUACGGGGA , self-splicing fitness (ln) read as -2.3

Notebook: GUUCAGCAAUAUUACGCGGG , self-splicing fitness (ln) read as -2.32

Notebook: GCGCAGCAAUAUUACGUGCA , self-splicing fitness (ln) read as -2.09

###

- Test: self-splicing fitness, log relative to wild type (ln ratio); higher = more splicing; Tetrahymena group I intron in knt gene, E. coli kanamycin selection, DiMSum; sequences stand for … in CUCUCU…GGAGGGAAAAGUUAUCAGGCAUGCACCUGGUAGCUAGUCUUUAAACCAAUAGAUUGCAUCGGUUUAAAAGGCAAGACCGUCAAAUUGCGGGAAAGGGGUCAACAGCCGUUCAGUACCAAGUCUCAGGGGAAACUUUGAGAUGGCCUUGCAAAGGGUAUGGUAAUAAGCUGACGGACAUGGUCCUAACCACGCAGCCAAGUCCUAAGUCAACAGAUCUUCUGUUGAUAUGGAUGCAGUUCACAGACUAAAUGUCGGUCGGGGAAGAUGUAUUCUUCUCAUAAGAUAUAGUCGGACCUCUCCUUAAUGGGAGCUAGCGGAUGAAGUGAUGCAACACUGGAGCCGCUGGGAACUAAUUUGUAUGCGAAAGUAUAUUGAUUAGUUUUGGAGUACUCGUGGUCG
- Condition parameters: 37 °C
Observation type: self-splicing fitness (ln)
Field format: numeric only.

{"columns": ["Biopolymer sequence", "Value observed"],
 "data": [
  ["CAAUAGCAAUAUUACGUCGU", -2.49],
  ["CGGCAGCAAUAUUACGAUUC", -2.3],
  ["AGCCAGCAAUAUUACGGGCA", -0.459],
  ["CUCCAGCAAUAUUACGAAUG", -0.438],
  ["UACAAGCAAUAUUACGUCUA", 0.00361],
  ["ACCGAGCAAUAUUACGGGCG", -0.0363]
]}

Notebook: ACAGAGCAAUAUUACGCGAG , self-splicing fitness (ln) read as -2.43

Notebook: GCCGAGCAAUAUUACGAUUU , self-splicing fitness (ln) read as -0.375

Notebook: CACAAGCAAUAUUACGGGAA , self-splicing fitness (ln) read as -2.79

Notebook: UGCGAGCAAUAUUACGGUGC , self-splicing fitness (ln) read as -0.943

Notebook: CUACAGCAAUAUUACGUUGG , self-splicing fitness (ln) read as -2.45

Notebook: GCGUAGCAAUAUUACGGUUG , self-splicing fitness (ln) read as -1.75

Notebook: UUUAAGCAAUAUUACGACGG , self-splicing fitness (ln) read as 0.382

Notebook: ACGCAGCAAUAUUACGACGC , self-splicing fitness (ln) read as 0.169

Notebook: GUUGAGCAAUAUUACGGAUC , self-splicing fitness (ln) read as -1.16

Notebook: AGAUAGCAAUAUUACGCAGU , self-splicing fitness (ln) read as -1.49

###

self-splicing fitness (ln) values by entry
- Test: self-splicing fitness, log relative to wild type (ln ratio); higher = more splicing; Tetrahymena group I intron in knt gene, E. coli kanamycin selection, DiMSum; sequences stand for … in CUCUCU…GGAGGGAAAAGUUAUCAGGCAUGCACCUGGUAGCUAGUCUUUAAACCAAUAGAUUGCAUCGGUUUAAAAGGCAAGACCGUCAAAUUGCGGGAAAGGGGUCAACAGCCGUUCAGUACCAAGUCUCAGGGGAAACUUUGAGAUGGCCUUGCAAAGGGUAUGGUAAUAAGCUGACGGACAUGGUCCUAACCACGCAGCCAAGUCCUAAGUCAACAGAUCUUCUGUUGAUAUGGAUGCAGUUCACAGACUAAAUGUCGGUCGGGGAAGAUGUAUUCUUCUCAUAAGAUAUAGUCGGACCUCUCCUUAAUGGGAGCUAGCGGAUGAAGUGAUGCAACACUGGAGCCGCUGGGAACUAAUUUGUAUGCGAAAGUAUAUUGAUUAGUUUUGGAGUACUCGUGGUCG
- Condition parameters: 30 °C
Field format: numeric only.

Notebook: GAUAAGCAAUAUUACGCGCA , self-splicing fitness (ln) read as -0.808

Notebook: GUUCAGCAAUAUUACGGGAC , self-splicing fitness (ln) read as -2.39

Notebook: AUUUAGCAAUAUUACGUCUA , self-splicing fitness (ln) read as -0.829
